molecular target: T1, HLA-A*02:01 (peptide-receptive MHC class I molecule of the UV-ligand exchange assay) (human); test: UV-ligand exchange, anti-b2m ELISA; peptide exchange yield grade (>=10% = +; >=20% = ++; >=50 = +++; >=75% = ++++)
T1 construct: MHC monomer first loaded with a UV-sensitive peptide (not identified) that is cleaved by UV light and exchanged for the test peptide; captured on streptavidin plates
Reported values of peptide exchange yield for individual entries

State the recorded peptide exchange yield for this entry: SLDENSDQQV (synthetic peptide; source gene S100A2) [SLDENSDQQV (SEQ ID NO: 10)]
50 to 75%

State the recorded peptide exchange yield for this entry: STYGGGLSV (synthetic peptide; source gene KRT14, KRT16) [STYGGGLSV (SEQ ID NO: 1)]
50 to 75%

State the recorded peptide exchange yield for this entry: PAVLQSSGLYSL (synthetic peptide; source genes IGHV4-31, IGHG1, IGHG2, IGHG3, IGHG4, IGHM) [PAVLQSSGLYSL (SEQ ID NO: 68)]
20 to 50%

State the recorded peptide exchange yield for this entry: VLINTSVTL (synthetic peptide; source gene ZNF292) [VLINTSVTL (SEQ ID NO: 93)]
50 to 75%

State the recorded peptide exchange yield for this entry: GLMKDIVGA (synthetic peptide; source gene KYNU) [GLMKDIVGA (SEQ ID NO: 49)]
50 to 75%

State the recorded peptide exchange yield for this entry: TASAITPSV (synthetic peptide; source gene KRT5) [TASAITPSV (SEQ ID NO: 3)]
50 to 75%

State the recorded peptide exchange yield for this entry: VLASGFLTV (synthetic peptide; source gene TTPAL) [VLASGFLTV (SEQ ID NO: 47)]
≥ 75%

State the recorded peptide exchange yield for this entry: GLAPFLLNAV (synthetic peptide; source gene FAM115C) [GLAPFLLNAV (SEQ ID NO: 19)]
50 to 75%
